Hello, the source for this data is patent US8236761B2, in case you need it.

system: neovascularization; assay: Disc angiogenesis assay (subcutaneous sponge disc); format: in vivo, Sprague Dawley rats; conditions: 50 μg per disc core, 14 days, rat
Non-standard residues stand in square brackets, D forms with d. No end group written: not given here. Nle = CCCC[C@H](N)C(=O)O
Outcome measure: Effect on angiogenesis in disc assay versus SGC discs

{"Substance": "Nle-Tyr-Leu-ψ-His-Pro-Phe ([Nle]YLHPF; also: reduced peptide bond psi(CH2NH2) between Leu and His) [Norleual]", "System under test": "neovascularization", "Assay value": "antagonist activity"}
{"Substance": "Nle-Tyr-Ile-His ([Nle]YIH) [Compound 3]", "System under test": "neovascularization", "Assay value": "antagonist activity"}
{"Substance": "Nle-Tyr-Ile-6(amino) hexanoic acid amide [Compound 4]", "System under test": "neovascularization", "Assay value": "antagonist activity"}
